A collection of molecules and their measured Kd
Tested System: 6× His-tagged, full-length IDOL (Homo sapiens)
Construct: Full length IDOL (1–445) was cloned with a TEV cleavable N-terminal 6xHis tag; made in house; host or cells: Spodoptera frugiperda Sf21 (baculovirus, pFastbac1)
Sequence (Q8WY64 whole entry): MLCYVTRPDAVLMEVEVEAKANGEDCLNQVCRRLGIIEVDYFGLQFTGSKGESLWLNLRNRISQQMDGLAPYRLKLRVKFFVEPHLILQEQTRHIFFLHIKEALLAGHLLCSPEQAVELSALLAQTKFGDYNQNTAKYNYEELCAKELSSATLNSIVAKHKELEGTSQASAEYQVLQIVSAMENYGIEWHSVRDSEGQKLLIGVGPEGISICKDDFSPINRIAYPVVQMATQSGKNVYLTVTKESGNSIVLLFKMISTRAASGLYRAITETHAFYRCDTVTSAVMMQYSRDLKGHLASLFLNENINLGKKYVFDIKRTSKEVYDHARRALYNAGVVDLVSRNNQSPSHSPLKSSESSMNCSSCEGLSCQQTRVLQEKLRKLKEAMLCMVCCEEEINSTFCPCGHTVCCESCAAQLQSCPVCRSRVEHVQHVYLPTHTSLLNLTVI
Assay Summary: Surface plasmon resonance (SPR) affinity for IDOL
Format: binding
Condition Parameters: SPR, immobilized full-length His-IDOL; saturation at highest concentrations not observed; read-out: Kd
Residues, ends and D or L forms follow the SMILES beside them.
Property Measured: Kd (µM)

- CC(C)C[C@@H]1NC(=O)[C@H](Cc2ccccc2)NC(=O)[C@H](Cc2ccccc2)NC(=O)[C@H](CS)NC(=O)[C@H]([C@@H](C)O)NC(=O)[C@H](Cc2ccc(O)cc2)NC1=O [RINGPep1, cyclo-CFFLYT] (HELM PEPTIDE1{C.F.F.L.Y.T}$PEPTIDE1,PEPTIDE1,1:R1-6:R2$$$V2.0): 38.5
- CC[C@H](C)[C@@H]1NC(=O)[C@H]([C@@H](C)O)NC(=O)[C@H](CS)NC(=O)[C@H](CC(C)C)NC(=O)[C@H](CC(C)C)NC(=O)[C@H](Cc2ccccc2)NC1=O [cyclo-CTIFLL] (HELM PEPTIDE1{C.T.I.F.L.L}$PEPTIDE1,PEPTIDE1,1:R1-6:R2$$$V2.0): 20.9
